Molecular target: human intermediate-conductance Ca2+-activated K+ channels (hIK channels) (Homo sapiens)
Test: Block of IK channels, whole-cell patch-clamp
Details: hIK cloned from human placenta, stably expressed in HEK293 cells; Ki = koff/kon from kinetics of the block
pKi: −log10 of the molar value.
Below, each entry is listed alongside its reported pKi.

- compound: "N#CC(Cc1ccccn1)(c1ccc(F)cc1)c1ccc([N+](=O)[O-])c(C(F)(F)F)c1 (stereo not shown) [Compound 8]"
  study_system: "human intermediate-conductance Ca2+-activated K+ channels (hIK channels) (Homo sapiens)"
  pKi: 7.19
- compound: "NC(CSC(c1ccc(F)cc1)(c1ccc(F)cc1)c1ccccc1F)=NO [Compound 6]"
  study_system: "human intermediate-conductance Ca2+-activated K+ channels (hIK channels) (Homo sapiens)"
  pKi: 6.28
- compound: "N#CC(CC(=O)O)(c1ccc(F)cc1)c1ccc(F)cc1 [Compound 2]"
  study_system: "human intermediate-conductance Ca2+-activated K+ channels (hIK channels) (Homo sapiens)"
  pKi: 5.66
- compound: "CCOC(=O)CCC(C#N)(c1ccc(F)cc1)c1ccc(F)cc1 [Compound 4]"
  study_system: "human intermediate-conductance Ca2+-activated K+ channels (hIK channels) (Homo sapiens)"
  pKi: 5.85
